EC50 listing for selected molecules.
Target: human β3 adrenergic receptor (Homo sapiens)
Construct: expressed in transfected cells; host or cells: Chinese hamster ovary (CHO) cells, stably transfected
Test: Beta-3 agonist in vitro functional assay: cAMP production (LANCE TR-FRET) in CHO cells stably transfected with the cloned β3 receptor
Assay type: cell-based
Settings: Table 13; human Beta-3 agonist functional activity given as range; read-out: Human β3 agonist functional activities
Recorded Metric: EC50

O=C(c1ccc(C[C@@H]2CC[C@H]([C@H](O)c3ccccc3)N2)c(Br)c1)N1CC2C(C1)C2n1cnnn1 (some centres unmarked): 1 to 9.9 nM
O=C(c1ccc(C[C@@H]2CC[C@H]([C@H](O)c3ccccc3)N2)c(Br)c1)N1CCC2(CCOC2=O)CC1: 1 to 9.9 nM

---

Target: human β3 adrenergic receptor (Homo sapiens, UniProt P13945)
Construct: expressed in transfected cells; host or cells: Chinese hamster ovary (CHO) cells, stably transfected
Sequence (P13945 whole entry): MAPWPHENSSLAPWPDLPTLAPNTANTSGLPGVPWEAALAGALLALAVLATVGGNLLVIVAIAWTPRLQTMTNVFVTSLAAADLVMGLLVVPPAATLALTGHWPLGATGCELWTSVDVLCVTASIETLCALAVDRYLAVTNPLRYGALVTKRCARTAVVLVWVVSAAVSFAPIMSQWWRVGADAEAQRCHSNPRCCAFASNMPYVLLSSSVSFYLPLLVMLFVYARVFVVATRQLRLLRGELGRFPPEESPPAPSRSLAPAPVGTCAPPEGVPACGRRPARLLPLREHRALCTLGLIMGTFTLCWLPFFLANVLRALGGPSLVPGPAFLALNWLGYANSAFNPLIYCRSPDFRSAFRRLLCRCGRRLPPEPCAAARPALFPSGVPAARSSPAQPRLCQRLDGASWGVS
Assay: Beta-3 agonist in vitro functional assay: cAMP production (LANCE TR-FRET) in CHO cells stably transfected with the cloned β3 receptor
Assay type: cell-based
Conditions: Table 4; cAMP, CHO cells; read-out: Human β3 agonist functional activity
pEC50: −log10 of the molar value.
Listed below: pEC50 values for each entry.
Recorded Metric: pEC50

O=C(OCc1ccccc1)C1CCCN(C(=O)c2ccc(C[C@@H]3CC[C@H]([C@H](O)c4ccccc4)N3)cc2)C1 (some centres unmarked) [Example 32]: 7.00 to 8.00
O=C(c1ccc(C[C@@H]2CC[C@H]([C@H](O)c3cccnc3)N2)cc1)N1CCCC1c1ccccc1F (some centres unmarked) [Example 16]: 6.00 to 7.00
O=C(c1ccc(C[C@@H]2CC[C@H]([C@H](O)c3ccccc3)N2)cc1)N1CCCC2(CCCNC2=O)C1 (some centres unmarked) [Example 39]: 6.00 to 7.00
CC1(O)CCN(C(=O)c2ccc(C[C@@H]3CC[C@H]([C@H](O)c4ccccc4)N3)cc2)C1 (some centres unmarked) [Example 12]: 6.00 to 7.00
C[C@@H]1CN(C(=O)c2ccc(C[C@@H]3CC[C@H]([C@H](O)c4ccccc4)N3)cc2)CC[C@@H]1n1cccn1 [Example 60]: 7.00 to 8.00
O=C(c1ccc(C[C@@H]2CC[C@H]([C@H](O)c3ccccc3)N2)cc1)N1CC2CCC(C1)C2n1cnnn1 (some centres unmarked) [Example 63]: 8.00 to 9.00
O=C(c1ccc(C[C@@H]2CC[C@H]([C@H](O)c3ccccc3)N2)cc1)N1CCCC(c2nc3ccccc3[nH]2)C1 (some centres unmarked) [Example 34]: 6.00 to 7.00
O=C(c1ccc(C[C@@H]2CC[C@H]([C@H](O)c3ccccc3)N2)cc1)N1CCCC1c1nccs1 (some centres unmarked) [Example 15]: 6.00 to 7.00
O=C(c1ccc(C[C@@H]2CC[C@H]([C@H](O)c3ccccc3)N2)cc1)N1Cc2cnn(C(F)(F)F)c2C1 [Example 30]: 6.00 to 7.00
CCOC(=O)C1CCCCN1C(=O)c1ccc(C[C@@H]2CC[C@H]([C@H](O)c3ccccc3)N2)cc1 (some centres unmarked) [Example 48]: 6.00 to 7.00
O=C(c1ccc(C[C@@H]2CC[C@H]([C@H](O)c3ccccc3)N2)cc1)N1CCCC2(CCc3cc(F)ccc3O2)C1 (some centres unmarked) [Example 44]: 6.00 to 7.00
CCOC(=O)C1CCN(C(=O)c2ccc(C[C@@H]3CC[C@H]([C@H](O)c4ccccc4)N3)cc2)C1 (some centres unmarked) [Example 6]: 6.00 to 7.00
Cc1nc2c(s1)CCN(C(=O)c1ccc(C[C@@H]3CC[C@H]([C@H](O)c4ccccc4)N3)cc1)C2 [Example 52]: 6.00 to 7.00
CC1(C)CC2(CCCN(C(=O)c3ccc(C[C@@H]4CC[C@H]([C@H](O)c5ccccc5)N4)cc3)C2)C(=O)O1 (some centres unmarked) [Example 41]: 7.00 to 8.00

---

The molecules listed here are annotated with their pEC50.
Target: human β3 adrenergic receptor (Homo sapiens, UniProt P13945)
Construct: expressed in transfected cells; host or cells: Chinese hamster ovary (CHO) cells, stably transfected
Assay: Beta-3 agonist in vitro functional assay: cAMP production (LANCE TR-FRET) in CHO cells stably transfected with the cloned β3 receptor
Assay type: cell-based
Conditions: Table 11; cAMP, CHO cells; read-out: Human β3 agonist functional activity
pEC50: −log10 of the molar value.
Recorded Metric: pEC50

C[C@H]1CN(C(=O)c2ccc(C[C@@H]3CC[C@H]([C@H](O)c4ccccc4)N3)cc2)CCN1Cc1nc2ccccc2o1 [Example 531]: 7.00 to 8.00
C[C@H](c1ccccn1)N1CC2CC1CN2C(=O)c1ccc(C[C@@H]2CC[C@H]([C@H](O)c3ccccc3)N2)cc1 (some centres unmarked) [Example 537]: 6.00 to 7.00
C[C@H]1CN(C(=O)c2ccc(C[C@@H]3CC[C@H]([C@H](O)c4ccccc4)N3)cc2)CCN1Cc1n[nH]c2ccccc12 [Example 532]: 7.00 to 8.00
O=C1CN(C(=O)c2ccc(C[C@@H]3CC[C@H]([C@H](O)c4ccccc4)N3)cc2)CCN1Cc1ccccn1 [Example 545]: 6.00 to 7.00
O=C(c1ccc(C[C@@H]2CC[C@H]([C@H](O)c3ccccc3)N2)cc1)N1CC2CCC1CN2Cc1ccccn1 (some centres unmarked) [Example 536]: 6.00 to 7.00
O=C(c1ccc(C[C@@H]2CC[C@H]([C@H](O)c3ccccc3)N2)cc1)N1CC2CCC(C1)N2Cc1ccccn1 [Example 535]: 6.00 to 7.00
O=C(c1ccc(C[C@@H]2CC[C@H]([C@H](O)c3ccccc3)N2)cc1)N1CCCN(c2nccn3ccnc23)CC1 [Example 552]: 8.00 to 9.00
C[C@@H]1CN(C(=O)c2ccc(C[C@@H]3CC[C@H]([C@H](O)c4ccccc4)N3)cc2)CCN1Cc1ccccn1 [Example 527]: 7.00 to 8.00
O=C(c1ccc(C[C@@H]2CC[C@H]([C@H](O)c3ccccc3)N2)cc1)N1CC2CC1CN2c1nccs1 (some centres unmarked) [Example 544]: 5.52 to 6.00
CC(c1ccccn1)N1C2CCC1CN(C(=O)c1ccc(CC3CCC(C(O)c4ccccc4)N3)cc1)C2 (centres unmarked) [Example 539]: 7.00 to 8.00
O=C(c1ccc(C[C@@H]2CC[C@H]([C@H](O)c3ccccc3)N2)cc1)N1CCN(c2ccccn2)C(=O)C1 [Example 546]: 6.00 to 7.00
O=C(c1ccc(C[C@@H]2CC[C@H]([C@H](O)c3ccccc3)N2)cc1)N1CCCN(Cc2ccccn2)CC1 [Example 551]: 7.00 to 8.00
O=C(c1ccc(C[C@@H]2CC[C@H]([C@H](O)c3ccccc3)N2)cc1)N1CCn2cnnc2C1 [Example 548]: 6.00 to 7.00
C[C@H]1CN(Cc2ccccn2)CCN1C(=O)c1ccc(C[C@@H]2CC[C@H]([C@H](O)c3ccccc3)N2)cc1 [Example 530]: 7.00 to 8.00
C[C@@H]1CN(C(=O)c2ccc(C[C@@H]3CC[C@H]([C@H](O)c4ccccc4)N3)cc2)C[C@H](C)N1Cc1ccccn1 [Example 533]: 6.00 to 7.00
O=C(c1ccc(C[C@@H]2CC[C@H]([C@H](O)c3ccccc3)N2)cc1)N1CC2CC1CN2Cc1ccccn1 (some centres unmarked) [Example 534]: 6.00 to 7.00
O=C(c1ccc(C[C@@H]2CC[C@H]([C@H](O)c3ccccc3)N2)cc1)N1CCN2C(=O)CCC2C1 (some centres unmarked) [Example 550]: 6.00 to 7.00
CC(c1ccccn1)N1CC2CCC1CN2C(=O)c1ccc(CC2CCC(C(O)c3ccccc3)N2)cc1 (centres unmarked) [Example 542]: 6.00 to 7.00
C[C@H]1CN(C(=O)c2ccc(C[C@@H]3CC[C@H]([C@H](O)c4ccccc4)N3)cc2)CCN1Cc1ccccn1 [Example 528]: 7.00 to 8.00
C[C@@H](c1ccccn1)N1C2CCC1CN(C(=O)c1ccc(C[C@@H]3CC[C@H]([C@H](O)c4ccccc4)N3)cc1)C2 [Example 540]: 6.00 to 7.00

---

Target: human β3 adrenergic receptor (Homo sapiens, UniProt P13945)
Construct: expressed in transfected cells; host or cells: Chinese hamster ovary (CHO) cells, stably transfected
Assay: Beta-3 agonist in vitro functional assay: cAMP production (LANCE TR-FRET) in CHO cells stably transfected with the cloned β3 receptor
Type: cell-based
Details: Table 9; Beta-3 agonist in vitro functional assay; read-out: Human β3 agonist functional activity
Recorded Metric: EC50

O=C(c1ccc(C[C@@H]2CC[C@H]([C@H](O)c3ccccc3)N2)cc1)N1CCN(Cc2cnccn2)CC1 [Example 426]: 10 to 99.9 nM
O=C(c1ccc(C[C@@H]2CC[C@H]([C@H](O)c3ccccc3)N2)cc1)N1CCN(c2ncccc2O)CC1 [Example 360]: 10 to 99.9 nM
O=C(c1ccc(C[C@@H]2CC[C@H]([C@H](O)c3ccccc3)N2)cc1)N1CCN(Cc2n[nH]c3ccccc23)CC1 [Example 405]: 1 to 9.9 nM
O=C(c1ccc(C[C@@H]2CC[C@H]([C@H](O)c3ccccc3)N2)cc1)N1CCN(Cc2ncccc2Br)CC1 [Example 416]: 10 to 99.9 nM
